B1: library; a variant is named by its letters at N, in order (parent)
chain: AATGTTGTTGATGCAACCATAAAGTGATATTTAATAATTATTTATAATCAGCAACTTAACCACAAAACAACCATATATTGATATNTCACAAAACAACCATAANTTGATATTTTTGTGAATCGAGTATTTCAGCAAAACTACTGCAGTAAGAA

Variants of: B1
experiment: relative integration efficiency (T-LR orientation) vs wild-type transposon end (log2 (normalized fold change)); transposon end mutated: left end; higher = more efficient transposition
recorded conditions: with VchCAST RNA-guided transposition machinery (E. coli BL21(DE3) host, lacZ target)
Quick rule for you: relative integration efficiency (log2) at -1 or higher means satisfied, lower means not satisfied.

Inquiry: Please indicate if the recorded relative integration efficiency (log2) for CG G117C A118T meets or exceeds -1.
Reply text: satisfied

Inquiry: Given CG A11T T12A , state whether its relative integration efficiency (log2) is at least -1.
Reply text: not satisfied

Inquiry: Tell me whether relative integration efficiency (log2) is at least -1 here: CG A27C A81C A107C
Reply text: not satisfied

Inquiry: Hi team, for CG C94A , is the recorded relative integration efficiency (log2) at or above -1?
Reply text: satisfied

Inquiry: relative integration efficiency (log2) >= -1 for CG G26T G80T G106T ?
Reply text: not satisfied

Inquiry: Check the entry CG A118T : does relative integration efficiency (log2) equal or exceed -1?
Reply text: satisfied

Inquiry: Can TA A16C G24T T32G A33C A70C T76A T84A C87A T104A T110A T113A be said to have relative integration efficiency (log2) at or above -1?
Reply text: not satisfied
